Exercise: for every item that follows, state its recorded pIC50.
Target: KRas^G13D (Homo sapiens, UniProt P01116, G13D)
Sequence (P01116 1-169 isoform P01116-2 G13D): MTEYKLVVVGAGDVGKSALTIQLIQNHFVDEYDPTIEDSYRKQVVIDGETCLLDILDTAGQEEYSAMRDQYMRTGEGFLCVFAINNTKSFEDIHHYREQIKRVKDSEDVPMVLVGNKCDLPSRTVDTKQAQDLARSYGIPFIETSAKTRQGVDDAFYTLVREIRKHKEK
Assay: biochemical
Numbers only, as −log10 of the molar value.

Look up pIC50 for the entries below, preserving their order.
1. CCc1cccc2cccc(N3CCc4c(nc(OCC56CCCN5CCC6)nc4NC4CN(c5ccccn5)C4)C3)c12
2. CCc1cccc2cccc(N3CCc4c(nc(OCC56CCCN5CCC6)nc4N4CC5(CNC(=O)N5)C4)C3)c12
3. CCc1cccc2cccc(N3CCc4c(nc(OCC56CCCN5CCC6)nc4N4CCCn5nccc5C4)C3)c12
4. CCc1cccc2cccc(N3CCc4c(nc(OCC56CCCN5CCC6)nc4N4CCCCCC4)C3)c12
5. CCc1cccc2cccc(N3CCc4c(nc(OCC56CCCN5CCC6)nc4N4CCCC(C(C)O)C4)C3)c12 (stereo not shown)
6. CCc1cccc2cccc(N3CCc4c(nc(OCC56CCCN5CCC6)nc4N4CCCn5nc(N)cc5C4)C3)c12
7. CCc1cccc2cccc(N3CCc4c(nc(OCC56CCCN5CCC6)nc4N4CCOCC(O)C4)C3)c12 (stereo not shown)

stdout:
1. 5.22
2. 5.16
3. 5.69
4. 6.18
5. 5.87
6. 6.43
7. 6.80

----------
Test system: PSN1 cells, pERK
Assay: Inhibition of KRas phosphorylation of ERK (Cisbio HTRF Advanced pERK assay)
Type: cell-based
Details: Homo sapiens, PSN1, 3 h, read-out: Inhibition (HTRF IC50 nM) of KRas-mediated Phosphorylation of ERK, PSN1
measured.parameter: IC50 (nM)
Numbers only, in nM.

{"columns": ["compound", "target.entity", "IC50, nM"],
 "data": [
  ["CCc1c(F)ccc2cc(O)cc(N3CCc4c(nc(OC[C@@]56CCCN5C[C@H](F)C6)nc4N4CCC[C@]5(C4)NC(=O)NC5=O)C3)c12 [Example 196]", "PSN1 cells, pERK", 18]
]}

Proceed to the following item.
stdin: IC50 for O=C1NC(=O)C2(CCCN(c3nc(OC[C@@]45CCCN4C[C@H](F)C5)nc4c3CCN(c3cc(O)cc5ccc(F)c(Br)c35)C4)C2)N1 (stereo partly drawn) [Example 217] ?
stdout: 269

----------
Biological target: KRas^G12D (Homo sapiens, UniProt P01116, G12D)
Construct: […]; biotin (biotinylated)
Sequence (P01116 1-169 isoform P01116-2 G12D): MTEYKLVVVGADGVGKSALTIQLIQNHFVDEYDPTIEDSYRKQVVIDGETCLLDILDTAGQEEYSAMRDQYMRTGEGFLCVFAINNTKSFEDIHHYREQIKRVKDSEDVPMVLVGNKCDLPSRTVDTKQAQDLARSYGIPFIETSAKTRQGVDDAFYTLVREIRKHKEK
Assay: KRas binding assay (TR-FRET displacement of Cy5 labelled tracer)
Exercise: for every item that follows, state its recorded log10 of IC50.
Friendly reminder: values = log10 of IC50, unit µM.

Look up log10 of IC50 for the entries below, preserving their order.
1. CCc1cccc2cccc(N3CCc4c(nc(OCC56CCCN5CCC6)nc4NC4CN(c5ccccn5)C4)C3)c12
2. Oc1cc(N2CCc3c(nc(OC[C@@]45CCCN4C[C@H](F)C5)nc3N3CCCC4(CC(O)C4)C3)C2)c2c(Cl)c(F)ccc2c1 (some centres unmarked)
3. CCc1cccc2cccc(N3CCc4c(nc(OCC56CCCN5CCC6)nc4NC4CN(C(N)=O)C4)C3)c12
4. CN1CCC[C@H]1COc1nc2c(c(N3CCOCC(C)(O)C3)n1)CCN(c1cccc3cccc(Cl)c13)C2 (some centres unmarked)
5. CCc1cccc2cccc(N3CCc4c(nc(OCC56CCCN5CCC6)nc4NC4CC5CC5C4)C3)c12 (centres unmarked)
6. CCc1cccc2cccc(N3CCc4c(nc(OCC56CCCN5CCC6)nc4NCCNc4ncccc4C#N)C3)c12
7. CCc1cccc2cccc(N3CCc4c(nc(OCC56CCCN5CCC6)nc4N4CCC(n5ccnn5)CC4)C3)c12

stdout:
1: 0.74; 2: -2.40; 3: 0.12; 4: 0.67; 5: 1.40; 6: 1.55; 7: 1.49

Look up log10 of IC50 for the entries below, preserving their order.
1. CN(C)C(=O)c1cc2n(n1)CCCN(c1nc(OC[C@@H]3CCCN3C)nc3c1CCN(c1cccc4cccc(Cl)c14)C3)C2
2. CCc1cccc2cccc(N3CCc4c(nc(OCC56CCCN5CCC6)nc4N4CCCC(c5ncc(C)s5)C4)C3)c12 (centres unmarked)

stdout:
0.05
0.61

----------
Exercise: for every item that follows, state its recorded IC50.
Target: KRas^G12S (Homo sapiens, UniProt P01116, G12S)
Construct: […]; biotin (biotinylated); purchased Accelegan Inc
Sequence (P01116 1-169 isoform P01116-2 G12S): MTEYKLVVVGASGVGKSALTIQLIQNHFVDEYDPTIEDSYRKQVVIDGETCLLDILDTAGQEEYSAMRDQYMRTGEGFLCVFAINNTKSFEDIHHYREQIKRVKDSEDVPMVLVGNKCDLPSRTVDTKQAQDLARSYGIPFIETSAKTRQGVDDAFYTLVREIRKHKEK
Test: KRas binding assay (TR-FRET displacement of Cy5 labelled tracer)
Give bare numbers, in nM.

{"columns": ["compound", "number"],
 "data": [
  ["Cc1cccc2cccc(N3CCc4c(nc(OCC56CCCN5CCC6)nc4N4CC5C(=O)NC(=O)C5C4)C3)c12 (centres unmarked)", 68],
  ["CCc1cccc2cccc(N3CCc4c(nc(OCC56CCCN5CCC6)nc4N4CCCC(CO)CC4)C3)c12 (centres unmarked)", 535]
]}

Look up IC50 for the entries below, preserving their order.
1. CCc1cccc2cccc(N3CCc4c(nc(OCC56CCCN5CCC6)nc4N4CC[C@H]5C(=O)NC[C@H]5C4)C3)c12
2. CCc1cccc2cccc(N3CCc4c(nc(OCC56CCCN5CCC6)nc4NCc4ccc5nncn5c4)C3)c12
3. CCc1cccc2cccc(N3CCc4c(nc(OCC56CCCN5CCC6)nc4NCc4c5c(n[nH]c4=O)CCCC5)C3)c12
4. CCc1cccc2cccc(N3CCc4c(nc(OCC56CCCN5CCC6)nc4NCCNc4ncccc4C#N)C3)c12
5. CCc1cccc2cccc(N3CCc4c(nc(OCC56CCCN5CCC6)nc4N4CCCC(c5ccn[nH]5)C4)C3)c12 (centres unmarked)
6. CCc1cccc2cccc(N3CCc4c(nc(OCC56CCCN5CCC6)nc4N4C[C@@H]5C(=O)NC(=O)[C@@H]5C4)C3)c12
7. CCc1cccc2cccc(N3CCc4c(nc(OCC56CCCN5CCC6)nc4N4CCCC(N5CC(C)CS5(=O)=O)C4)C3)c12 (centres unmarked)
8. CCc1cccc2cccc(N3CCc4c(nc(OCC56CCCN5CCC6)nc4N4CCCC(O)(C(F)(F)F)C4)C3)c12 (centres unmarked)

stdout:
[2490, 592, 3400, 7120, 1350, 15, 240, 551]

Look up IC50 for the entries below, preserving their order.
1. CCc1cccc2cccc(N3CCc4c(nc(OCC56CCCN5CCC6)nc4N4CCCC(O)(C(F)F)C4)C3)c12 (centres unmarked)
2. CCc1cccc2cccc(N3CCc4c(nc(OCC56CCCN5CCC6)nc4N4CCCC(NC(=O)N(C)C)C4)C3)c12 (centres unmarked)
3. CCc1cccc2cccc(N3CCc4c(nc(OCC56CCCN5CCC6)nc4N4CCCn5nc(CO)cc5C4)C3)c12

stdout:
1. 202
2. 459
3. 175

----------
Target: KRas^G13D (Homo sapiens, UniProt P01116, G13D)
Assay: biochemical
pIC50: −log10 of the molar value.
Decision: pIC50 >= 6 yields 1, all other cases yield 0.

Solved entries:
{"columns": ["compound", "assigned.category"],
 "data": [
  ["CCc1cccc2cccc(N3CCc4c(nc(OCC56CCCN5CCC6)nc4N4CCCC(O)(C(F)F)C4)C3)c12 (stereo not shown) [Example 44]", 1],
  ["CCc1cccc2cccc(N3CCc4c(nc(OCC56CCCN5CCC6)nc4N4CCCC(c5ccno5)C4)C3)c12 (stereo not shown) [Example 99]", 0],
  ["CCc1cccc2cccc(N3CCc4c(nc(OCC56CCCN5CCC6)nc4N4C[C@@H](C)C[C@H](O)C4)C3)c12 [Example 97]", 1]
]}

stdin: Could you verify whether the entry CCc1cccc2cccc(N3CCc4c(nc(OCC56CCCN5CCC6)nc4N4CCCC(O)(C(F)(F)F)C4)C3)c12 (stereo not shown) [Example 110] shows pIC50 of no less than 6?
stdout: 1

stdin: Could you verify whether the entry CCc1cccc2cccc(N3CCc4c(nc(OCC56CCCN5CCC6)nc4N4CCC(c5[nH]ncc5N)C4)C3)c12 (stereo not shown) [Example 46] shows pIC50 of no less than 6?
stdout: 0

----------
Biological target: KRas^G12D (Homo sapiens, UniProt P01116, G12D)
Construct: […]; biotin (biotinylated)
Assay: KRas binding assay (TR-FRET displacement of Cy5 labelled tracer)
measured.parameter: log10 of IC50 (log10 of the value in nM)
Friendly reminder: values = log10 of IC50, unit nM.

{"columns": ["compound", "target.entity", "log10 of IC50"],
 "data": [
  ["CCc1cccc2cccc(N3CCc4c(nc(OCC56CCCN5CCC6)nc4NC4CCc5ncsc5C4)C3)c12 (centres unmarked) [Example 168]", "KRas^G12D (Homo sapiens, UniProt P01116, G12D)", 4.42],
  ["CCc1cccc2cccc(N3CCc4c(nc(OCC56CCCN5CCC6)nc4N4CCC(O)CC(CO)C4)C3)c12 (single isomer, unassigned) [Example 172]", "KRas^G12D (Homo sapiens, UniProt P01116, G12D)", 2.35],
  ["CCc1cccc2cccc(N3CCc4c(nc(OCC56CCCN5CCC6)nc4N4CCC(O)C(CO)CC4)C3)c12 (centres unmarked) [Example 13]", "KRas^G12D (Homo sapiens, UniProt P01116, G12D)", 2.46],
  ["CCc1cccc2cccc(N3CCc4c(nc(OCC56CCCN5CCC6)nc4N4CCC(O)CC(CO)C4)C3)c12 (single isomer, unassigned) [Example 174]", "KRas^G12D (Homo sapiens, UniProt P01116, G12D)", 2.46],
  ["CCc1cccc2cccc(N3CCc4c(nc(OCC56CCCN5CCC6)nc4N4CCCC(c5nc(C)c(C)[nH]5)C4)C3)c12 (centres unmarked) [Example 120]", "KRas^G12D (Homo sapiens, UniProt P01116, G12D)", 3.80]
]}

Look up log10 of IC50 for the entries below, preserving their order.
1. CCc1cccc2cccc(N3CCc4c(nc(OCC56CCCN5CCC6)nc4N(C)CC4(O)CC4)C3)c12 [Example 98]
2. CCc1c(F)ccc2cc(O)cc(N3CCc4c(nc(OC[C@@]56CCCN5C[C@H](F)C6)nc4N4CC5CC(O)C(C5)C4)C3)c12 (some centres unmarked) [Example 63]

stdout:
1. 3.03
2. 0.90

FYI, the data here is from patent US12421253B2.
